Listing of entries alongside the reported melting point.
endpoint-name: melting point

• N#Cc1c(C(N)=O)c2n(c1-c1ccccc1)CCN(C(=O)Nc1cccc(F)c1)C2 = 219 to 220 °C
• N#Cc1c(C(N)=O)c2n(c1C(F)(F)F)CCN(C(=O)Nc1ccc(C(F)(F)F)cc1)C2 = 243 to 246 °C (dec.)
• NC(=O)c1c(Cl)cn2c1CN(C(=O)Nc1ccc(F)cc1)CC2 = 229 to 231 °C
• Cc1ccc(-c2c(Cl)c(C(N)=O)c3n2CCN(C(=O)Nc2ccc(F)cc2)C3)cn1 = 235 to 238 °C (dec.)
• NC(=O)c1c(Cl)c(-c2ccccc2)n2c1CN(C(=O)Oc1ccccc1)CC2 = 196 to 198 °C
• NC(=O)c1c(Cl)c(-c2ccccc2)n2c1CN(S(=O)(=O)c1cccs1)CC2 = 240 to 242 °C

====

This listing pairs compounds with measured melting point.
endpoint-name: melting point

* COc1ccc(N/C(=N\C#N)N2CCn3c(c(C(N)=O)c(Cl)c3-c3ccccc3)C2)cc1 | 170 °C
* NC(=O)c1c(Cl)c(-c2ccccc2)n2c1CN(S(=O)(=O)Nc1ccccc1)CC2 | 207 to 208 °C
* NC(=O)c1c(Cl)c(-c2cccnc2)n2c1CN(S(=O)(=O)c1ccc(C(F)(F)F)cc1)CC2 | 205 to 206 °C
* COc1ccc(NC(=O)N2CCn3c(-c4ccccc4)cc(C(N)=O)c3C2)cc1 | 170 to 173 °C
* NC(=O)c1c(Cl)c(C2CC2)n2c1CN(C(=O)Nc1ccc(F)cc1)CC2 [Example 16(a)] | 230 to 231 °C

====

endpoint-name: melting point

• N#Cc1c(C(N)=O)c2n(c1-c1cccnc1)CCN(C(=O)Nc1ccc(F)cc1)C2 = 275 to 279 °C
• NC(=O)c1c(Cl)c(-c2ccccc2)n2c1CN(C(=O)Nc1cccnc1)CC2 = 261 to 263 °C
• N#Cc1ccc(NC(=O)N2CCn3c(c(C(N)=O)c(C#N)c3-c3cccnc3)C2)cc1 = 291 to 296 °C
• N#Cc1c(C(N)=O)c2n(c1C1CC1)CCN(S(=O)(=O)c1ccc(C(F)(F)F)cc1)C2 = 253 to 256 °C
• CS(=O)(=O)N1CCC(c2c(C#N)c(C(N)=O)c3n2CCN(C(=O)Nc2ccc(C#N)cc2)C3)CC1 = 218 to 221 °C
• N#Cc1ccc(NC(=O)N2CCn3c(c(C(N)=O)c(Cl)c3C3CC3)C2)cc1 = 196 to 198 °C
• N#Cc1c(C(N)=O)c2n(c1C1CCOCC1)CCN(C(=O)Nc1ccc3ncccc3c1)C2 = 296 to 298 °C (dec.)
• N#Cc1c(C(N)=O)c2n(c1C1CC1)CCN(C(=O)Nc1ccc(C(F)(F)F)nc1)C2 = 149 to 153 °C
• NC(=O)c1c(Cl)c(C2CC2)n2c1CN(C(=O)Nc1ccc(F)cc1)CC2 [Example 3] = 266 to 267 °C

====

endpoint-name: melting point

- N#Cc1c(C(N)=O)c2n(c1C1CC1)CCN(C(=O)Nc1ccc(F)cc1)C2 [Example 9(a)]: 232 to 234 °C
- NC(=O)c1c(Cl)c(-c2ccccc2)n2c1CN(C(=O)CCC1CCCCC1)CC2: 181 to 182 °C
- Cc1c(Cl)c(C(N)=O)c2n1CCN(C(=O)Nc1cccc(F)c1)C2: 229 to 231 °C
- N#Cc1c(C(N)=O)c2n(c1C1CCOCC1)CCN(C(=O)Nc1cccc(C(F)(F)F)c1)C2: 200 to 202 °C (dec.)
- CS(=O)(=O)N1CCC(c2c(C#N)c(C(N)=O)c3n2CCN(C(=O)Nc2ccc(F)cc2)C3)CC1: 177 to 180 °C
